- Protocol Summary: Liver microsomes stability
- Format: in vitro ADME, human
- Run Parameters: human, human liver microsomes, 1 μM compound, 1 mg/mL human liver microsomes, 1 mM NADPH; read-out: T½ of HLM
- Description: The compound to be tested with final concentration of 1 μM was incubated with 1 mg/mL of human liver microsomes and 1 mM of NADPH, and a group without NADPH was set as a negative control. The reaction mixture was quenched with methanol at five time points of 0, 5, 15, 30 and 60 min, respectively, then centrifuged at 2500 rpm for 20 min to precipitate proteins, and the resulting supernatant was analyzed by LC-MS/MS. […]
Property Measured: half-life at 1 μM (h)

For orientation, consider the following solved cases.
>  <Compound>
[2H]C([2H])([2H])Oc1cc(C(=O)Nc2cc3c(cc2Oc2cc(C)cc(C)c2)C(=O)N[C@@H](CC(=O)N(OC)C([2H])([2H])[2H])C(=O)N3)c(Br)c(OC([2H])([2H])[2H])c1OC([2H])([2H])[2H] [Compound 41]

>  <half-life at 1 μM / h>
1.52

$$$$
>  <Compound>
[2H]C([2H])([2H])Oc1cc(C(=O)Nc2cc3c(cc2Oc2cc(C)cc(C)c2)C(=O)N(C)[C@@H](CC(=O)N(C([2H])([2H])C([2H])([2H])[2H])C([2H])([2H])C([2H])([2H])[2H])C(=O)N3)c(Br)c(OC([2H])([2H])[2H])c1OC([2H])([2H])[2H] [Compound 13]

>  <half-life at 1 μM / h>
0.78

$$$$

[1] [2H]C([2H])([2H])Oc1cc(C(=O)Nc2cc3c(cc2Oc2cc(C)cc(C)c2)C(=O)N[C@@H](CC(=O)N(OC([2H])([2H])[2H])C([2H])([2H])[2H])C(=O)N3)c(Cl)c(OC([2H])([2H])[2H])c1OC([2H])([2H])[2H] [Compound 38]
[2] [2H]C([2H])([2H])N1C(=O)c2cc(Oc3cc(C)cc(C)c3)c(NC(=O)c3cc(OC)c(OC)c(OC)c3Cl)cc2NC(=O)[C@@H]1CC(=O)N(C([2H])([2H])C([2H])([2H])[2H])C([2H])([2H])C([2H])([2H])[2H] [Compound 19]
**Q:** Larger number for half-life at 1 μM: 1 , or 2 ? Answer format: the label of the selected item.
**A:** 1
